Test system: Saccharomyces cerevisiae
Measurement description: protein stability index of tFT-peptide fusion (C-terminal peptide) (PSI (0-1 scale)); higher = more stable (slower turnover)
Applied conditions: genetic background: doa10 deletion; temperature: 30 C
Reported endpoint: protein stability index
Could you keep your reply to the number by itself?

>  <Entry sequence>
KYKANLGNLKVH

>  <Target system>
Saccharomyces cerevisiae

>  <Reported endpoint>
protein stability index

>  <Result number>
0.0824

$$$$
>  <Entry sequence>
GWRGVVLVFVLV

>  <Target system>
Saccharomyces cerevisiae

>  <Reported endpoint>
protein stability index

>  <Result number>
0.251

$$$$
>  <Entry sequence>
WFLRLVGAVFAL

>  <Target system>
Saccharomyces cerevisiae;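 also: PSI is a weighted mean of sequencing reads over stability bins, variants kept only with over 10 reads, mCherry proximal and sfGFP distal, peptide attached via GGGS linker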

>  <Reported endpoint>
protein stability index

>  <Result number>
0.46

$$$$

Indicate the recorded protein stability index value for this sequence: VSLLVFVVSSRV 0.223

Indicate the recorded protein stability index value for this sequence: LSILLFVQFFPP 0.24

Indicate the recorded protein stability index value for this sequence: LLPTSVFLPSLF 0.282

Indicate the recorded protein stability index value for this sequence: RGGVLYVSIRCK 0.186

Numbers sourced from the supplement of paper PMC10724198.
